# Test system: synthesis of LTB4 in human whole blood
# measurement.description: human whole blood (HWB) assay, LTB4 production inhibition after calcimycin stimulation
# Format: cell-based
# run.conditions: heparinized human whole blood, calcimycin 20 μM, plasma LTB4 by HTRF
Criterion: IC50 strictly under 100 nM. Met: t. Not met: f.

Solved cases (6 shown):
| compound | assigned.category |
| --- | --- |
| CC(=O)N[C@H]1[C@@H]2CN(Cc3ccc([C@H]4COc5cccnc5O4)cc3)C[C@@H]21 | t |
| O=C(O)[C@@H]1CCN(Cc2ccc([C@H]3COc4ccccc4O3)cc2)C1 | f |
| CN(CCc1ccccn1)Cc1ccc([C@H]2COc3cccnc3O2)cc1 | t |
| CC(C)(O)CNC(=O)[C@H]1[C@@H]2CN(Cc3ccc([C@H]4COc5cccnc5O4)cc3)C[C@@H]21 | t |
| NC(=O)N1CC2(CCN(Cc3ccc([C@H]4COc5cccnc5O4)cc3)CC2)c2ccccc21 | t |
| CCN(C)Cc1ccc([C@H]2COc3cccnc3O2)cc1 | t |

Exercise: API: query returns whether the compound falls strictly under 100 nM in IC50. Query: c1cnc2c(c1)OC[C@H](c1ccc(CN3CCCC3)cc1)O2
Key: t

Exercise: API: query returns whether the compound falls strictly under 100 nM in IC50. Query: c1cnc2c(c1)OC[C@H](c1ccc(CN3CCOCC3)cc1)O2
Key: t

Exercise: API: query returns whether the compound falls strictly under 100 nM in IC50. Query: NC(=O)NC1CCN(Cc2ccc([C@H]3COc4ccccc4O3)cc2)CC1
Key: t

Exercise: API: query returns whether the compound falls strictly under 100 nM in IC50. Query: O=C1OC[C@@H]2CN(Cc3ccc([C@H]4COc5cccnc5O4)cc3)CCN12
Key: t

Exercise: API: query returns whether the compound falls strictly under 100 nM in IC50. Query: O=C1CCCN1CC1CCCN(Cc2ccc(C3COc4ccccc4O3)cc2)C1 (racemic)
Key: f

Exercise: API: query returns whether the compound falls strictly under 100 nM in IC50. Query: c1ccc2c(c1)OCC(c1ccc(CN3CCCC3)cc1)O2 (racemic)
Key: f

Exercise: API: query returns whether the compound falls strictly under 100 nM in IC50. Query: O=C(O)[C@H]1[C@@H]2CN(Cc3ccc([C@H]4COc5ccccc5O4)cc3)C[C@@H]21
Key: t

Exercise: API: query returns whether the compound falls strictly under 100 nM in IC50. Query: CS(=O)(=O)CC(=O)N1C[C@@H]2C[C@H]1CN2Cc1ccc([C@H]2COc3cccnc3O2)cc1
Key: f

Exercise: API: query returns whether the compound falls strictly under 100 nM in IC50. Query: CC(=O)NC1CCN(Cc2ccc([C@H]3COc4cccnc4O3)cc2)CC1
Key: t

Exercise: API: query returns whether the compound falls strictly under 100 nM in IC50. Query: c1cnc2c(c1)OC[C@H](c1ccc(CN3[C@H]4CC[C@@H]3CC4)cc1)O2
Key: t

Exercise: API: query returns whether the compound falls strictly under 100 nM in IC50. Query: CC(=O)NC1CCN(Cc2ccc([C@H]3COc4ccccc4O3)cc2)CC1
Key: f

====

# target.or.test.system: human LTA4 hydrolase (Homo sapiens, UniProt P09960)
# Sequence (P09960 1-611): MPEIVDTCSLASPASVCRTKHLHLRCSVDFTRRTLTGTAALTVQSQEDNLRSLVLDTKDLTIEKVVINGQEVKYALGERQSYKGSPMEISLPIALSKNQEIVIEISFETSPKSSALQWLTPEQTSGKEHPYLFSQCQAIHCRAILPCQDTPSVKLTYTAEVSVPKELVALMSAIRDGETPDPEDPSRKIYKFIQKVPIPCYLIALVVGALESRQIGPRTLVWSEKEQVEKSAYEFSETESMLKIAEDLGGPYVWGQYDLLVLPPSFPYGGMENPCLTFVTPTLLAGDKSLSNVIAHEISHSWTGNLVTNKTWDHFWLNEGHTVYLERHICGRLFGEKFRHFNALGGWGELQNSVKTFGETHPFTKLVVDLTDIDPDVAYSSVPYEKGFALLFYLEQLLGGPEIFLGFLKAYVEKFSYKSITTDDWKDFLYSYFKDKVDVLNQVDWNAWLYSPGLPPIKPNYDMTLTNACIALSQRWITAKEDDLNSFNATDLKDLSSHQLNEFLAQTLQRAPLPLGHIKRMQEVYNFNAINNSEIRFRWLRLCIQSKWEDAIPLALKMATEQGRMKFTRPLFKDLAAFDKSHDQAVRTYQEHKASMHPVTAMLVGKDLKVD
# measurement.description: LTA4H Enzyme assay (cleavage of Arg-AMC, fluorescence)
# Format: biochemical
# run.conditions: LTA4H Enzyme 1 nM, Arg-AMC substrate 50 μM, room temperature 1 h, fluorescence; read-out: IC50 values of LTA4H Enzyme assay
pIC50: −log10 of the molar value.
Respond with condition met for pIC50 values of 9 and above, condition not met for values below.

| compound | assigned.category |
| --- | --- |
| O=C(O)c1ccc(CC2CCN(Cc3ccc([C@H]4COc5cccnc5O4)cc3)CC2)cc1 | condition met |
| c1ccc2c(c1)OC[C@H](c1ccc(CN3CCCC3)cc1)O2 (single isomer, unassigned) | condition met |

Exercise: Reported pIC50 at or above 9? CC(=O)N1CCC(N(C)Cc2ccc([C@H]3COc4ccccc4O3)cc2)CC1
Key: condition met

Exercise: Reported pIC50 at or above 9? N#CC1CN(Cc2ccc(C3COc4ccccc4O3)cc2)C1 (racemic)
Key: condition not met

====

# target.or.test.system: human LTA4 hydrolase (Homo sapiens)
# measurement.description: LTA4H Enzyme assay (cleavage of Arg-AMC, fluorescence)
# Type: biochemical
# run.conditions: LTA4H Enzyme 1 nM, Arg-AMC substrate 50 μM, room temperature 1 h, fluorescence; read-out: IC50 values of LTA4H Enzyme assay
# Protocol: The compounds of the invention are assessed for the ability to interact with human LTA4 hydrolase in an enzymatic assay that measures the ability of the enzyme to cleave the peptide bond of arginyl-aminomethylcoumarin (Arg-AMC). […] The formation of product is assessed by measuring the fluorescence of aminomethylcoumarin product (excitation wavelength 380 nm/emission wavelength 460 nm).
pIC50: −log10 of the molar value.
Respond with 1 (yes) for pIC50 values of 9 and above, 0 (no) for values below.

Solved cases (4 shown):
| compound | target.or.test.system | assigned.category |
| --- | --- | --- |
| O=C1OCCN1Cc1ccc(C2COc3cccnc3O2)cc1 (centres unmarked) | human LTA4 hydrolase (Homo sapiens) | 0 (no) |
| NC(=O)NC1CCN(Cc2ccc([C@H]3COc4cccnc4O3)cc2)CC1 | human LTA4 hydrolase (Homo sapiens) | 1 (yes) |
| O=C(O)[C@@H]1CCN(Cc2ccc([C@H]3COc4ccccc4O3)cc2)C1 | human LTA4 hydrolase (Homo sapiens) | 1 (yes) |
| NC(=O)COC1CCN(Cc2ccc([C@H]3COc4cccnc4O3)cc2)CC1 | human LTA4 hydrolase (Homo sapiens) | 1 (yes) |

Exercise: Reported pIC50 at or above 9? O=C1CCCN1CC1CCN(Cc2ccc([C@H]3COc4ccccc4O3)cc2)CC1
Key: 1 (yes)

====

Recorded pIC50 for the following compounds
# target.or.test.system: human LTA4 hydrolase (Homo sapiens, UniProt P09960)
# Sequence (P09960 1-611): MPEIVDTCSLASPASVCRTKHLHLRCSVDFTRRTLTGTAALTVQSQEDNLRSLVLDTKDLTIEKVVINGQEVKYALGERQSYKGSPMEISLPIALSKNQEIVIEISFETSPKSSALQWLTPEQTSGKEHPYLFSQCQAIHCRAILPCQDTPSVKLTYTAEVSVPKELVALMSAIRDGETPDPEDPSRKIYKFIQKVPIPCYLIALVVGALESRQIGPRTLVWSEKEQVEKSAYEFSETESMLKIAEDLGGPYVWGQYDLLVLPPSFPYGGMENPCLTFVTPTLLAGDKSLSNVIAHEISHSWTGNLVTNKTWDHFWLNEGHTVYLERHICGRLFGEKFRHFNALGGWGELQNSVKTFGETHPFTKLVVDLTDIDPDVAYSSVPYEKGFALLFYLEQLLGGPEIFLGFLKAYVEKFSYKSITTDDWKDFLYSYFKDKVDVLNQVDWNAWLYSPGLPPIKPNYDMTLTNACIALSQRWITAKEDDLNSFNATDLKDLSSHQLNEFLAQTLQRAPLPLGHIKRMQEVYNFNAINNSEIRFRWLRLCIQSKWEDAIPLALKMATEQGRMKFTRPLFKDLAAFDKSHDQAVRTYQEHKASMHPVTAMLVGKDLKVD
# measurement.description: LTA4H Enzyme assay (cleavage of Arg-AMC, fluorescence)
# Format: biochemical
# run.conditions: LTA4H Enzyme 1 nM, Arg-AMC substrate 50 μM, room temperature 1 h, fluorescence; read-out: IC50 values of LTA4H Enzyme assay
Counter-ions that a name gives are not always drawn.
Value format note: pIC50 is -log10 of concentration (mol/L); just state the number.

Worked examples, 5 compounds total:
| compound | pIC50 |
| --- | --- |
| C[C@H]1CC[C@H](NCc2ccc([C@H]3COc4ccccc4O3)cc2)CC1 | 8.63 |
| CNC(=O)c1nnc2n1CCN(Cc1ccc([C@H]3COc4cccnc4O3)cc1)CC2 | 9.54 |
| O=C(O)CCCC1CCN(Cc2ccc([C@H]3COc4cccnc4O3)cc2)CC1 | 10.00 |
| CN(Cc1ccc([C@H]2COc3ccccc3O2)cc1)C(C)(C)C | 9.51 |
| CC(C)(C(=O)O)C1CCN(Cc2ccc([C@H]3COc4cccnc4O3)cc2)CC1 [Example 230, formate salt] | 8.91 |

Exercise: Form field: reported pIC50 of CN1CCC(N(C)Cc2ccc([C@H]3COc4ccccc4O3)cc2)CC1
Key: 8.67

Exercise: Form field: reported pIC50 of c1cnc2c(c1)OC[C@H](c1ccc(CN3CCOCC3)cc1)O2
Key: 9.82

Exercise: Form field: reported pIC50 of O=C(O)C1(F)CCN(Cc2ccc([C@H]3COc4ccccc4O3)cc2)CC1
Key: 9.09
